Where do the numbers come from? From ChEMBL document CHEMBL1151101.

# Species on record: Mus musculus
# assay-name: Skin irritant activity in NMRI mouse ear assessed as irritant dose 50 per ear after 24 hrs
# Assay type: ADME, organism-based
# settings: in vivo
Label rule, in plain words: Activity of 0.04 nmol and up is fulfilled, under 0.04 nmol is not fulfilled.

molecule | assigned-category
C=C(C)[C@@]12C[C@@H](C)[C@@]34O[C@@]5(/C=C/CCCCCCCCCCCC(C)(O)[C@H]6[C@H](C)C(=O)[C@@](O)([C@H](O)[C@@]7(CO)O[C@H]7[C@H]3[C@H]1O5)[C@@H]64)O2 (some centres undefined) | not fulfilled

Enquiry: API: above_or_equal(metric=Activity, cutoff=0.04 nmol) for item `C=C(C)[C@]12C[C@@H](C)[C@@]34O[C@](/C=C\C=C\CCCCCCCCCC)(O[C@@H]1[C@@H]3[C@@H]1O[C@]1(CO)[C@@H](O)[C@]1(O)C(=O)C(C)=C[C@H]14)O2`
Return: not fulfilled

Enquiry: API: above_or_equal(metric=Activity, cutoff=0.04 nmol) for item C=C(C)[C@@]12C[C@@H](C)[C@@]34O[C@@]5(/C=C/CCCCCCCCCCCC(C)[C@H]6[C@H](C)C(=O)[C@@](O)([C@H](O)[C@@]7(COC(=O)CCCCCCCCCCCCCCC)O[C@H]7[C@H]3[C@H]1O5)[C@@H]64)O2 (some centres undefined)
Return: not fulfilled

Enquiry: API: above_or_equal(metric=Activity, cutoff=0.04 nmol) for item C=C(C)[C@]12O[C@@]34/C=C/CCCCCCCCCCCC(C)[C@H]5[C@H](C)C(=O)[C@@]6(O)[C@H](O)[C@@]7(CO)O[C@H]7[C@@H]([C@H]1O3)[C@](O4)([C@H](C)[C@H]2O)[C@H]56 (some centres undefined)
Return: not fulfilled

Enquiry: API: above_or_equal(metric=Activity, cutoff=0.04 nmol) for item `C=C(C)[C@]12O[C@@]3(/C=C/C=C/CCCCC)O[C@@H]1[C@@H]1[C@@H]4O[C@]4(CO)[C@@H](O)[C@]4(O)C(=O)C(C)=C[C@H]4[C@@]1(O3)[C@H](C)[C@H]2O`
Return: fulfilled

Enquiry: API: above_or_equal(metric=Activity, cutoff=0.04 nmol) for item `C=C(C)[C@]12O[C@@]34/C=C/CCCCCCCCCCC[C@H](C)[C@H]5[C@H](C)C(=O)[C@@]6(O)[C@H](O)[C@@]7(CO)O[C@H]7[C@@H]([C@H]1O3)[C@](O4)([C@H](C)[C@H]2OC(C)=O)[C@H]56`
Return: not fulfilled

Enquiry: API: above_or_equal(metric=Activity, cutoff=0.04 nmol) for item `C=C(C)[C@]12O[C@@]3(/C=C/C=C/C=C\CCC)O[C@@H]1[C@@H]1[C@@H]4O[C@]4(CO)[C@@H](O)[C@]4(O)C(=O)C(C)=C[C@H]4[C@@]1(O3)[C@H](C)[C@H]2OC(C)=O`
Return: fulfilled

Enquiry: API: above_or_equal(metric=Activity, cutoff=0.04 nmol) for item `C=C(C)[C@@]1(OC(=O)/C=C/CCCCCCCCCCCCC)C[C@@H](C)[C@@]2(O)[C@H]([C@H]1O)[C@@H]1O[C@]1(CO)[C@@H](O)[C@]1(O)C(=O)C(C)=C[C@H]12`
Return: fulfilled

* * *

# Organism: Mus musculus
# assay-name: Skin irritant activity in NMRI mouse ear assessed as irritancy after 24 hrs
# Type: ADME, organism-based
# settings: in vivo
recorded-metric: Activity (nmol⁻¹)
Expressed in nmol⁻¹, but write only the number.

given-smiles | Activity / nmol⁻¹
C=C(C)[C@]12C[C@@H](C)[C@@]34O[C@](CCCCCCCCC)(O[C@@H]1[C@@H]3[C@@H]1O[C@]1(CO)[C@@H](O)[C@]1(O)C(=O)C(C)=C[C@H]14)O2 | 77

Let's switch to this compound now.
GET /value?item= `C=C(C)[C@]12O[C@@]3(/C=C/C=C/CCCCCCCCC)O[C@@H]1[C@@H]1[C@@H]4O[C@]4(CO)[C@@H](O)[C@]4(O)C(=O)C(C)=C[C@H]4[C@@]1(O3)[C@H](C)[C@H]2OC(C)=O` &field=Activity returns 33
